target: alanyl aminopeptidases (APN) (Homo sapiens); assay: Inhibition of alanyl aminopeptidase enzymatic activity, fluorogenic substrate (Ala)2-rhodamine 110; assay type: biochemical; conditions: Table 7; read-out: IC50APN
pIC50: −log10 of the molar value.
assay readout: pIC50

(A) CN/C=C1\C=C(c2ccccc2)OC1=S [A7.001]
(B) O=C(O)CSCC1NC(=S)N(c2ccccc2)C1=O (stereo not shown) [A7.005]
Returns the identifier with the smallest measured pIC50 among A and B . Response format: the label of the selected entry.
B
(B: 4.92, A: 5.22)

(a) CSCCC1NC(=S)N(Cc2ccccc2)C1=O (stereo not shown) [A7.008]
(b) CCc1cccc(CC)c1NC(=S)N/N=C1\C(=O)N(CN2CC(C)CC(C)C2)c2ccccc21 (stereo not shown) [A7.002]
Among a and b , which shows a numerically higher pIC50 result? Respond using the label that marks the chosen record.
b

(P) Cc1ccc(S(=O)(=O)CNC(=S)c2ccc3ccccc3c2)cc1 [A7.004]
(Q) O=C1C(Cc2ccc(O)cc2)NC(=S)N1C1CCCCC1 (stereo not shown) [A7.011]
(R) O=C1C(Cc2ccc3[nH]ccc3c2)NC(=S)N1c1ccccc1 (stereo not shown) [A7.012]
Order field: pIC50 | Direction: descending (largest first) Please reply with the labels ordered as requested. Many thanks.
P, Q, R
(P: 4.93, Q: 4.67, R: 4.43)

---

molecular target: alanyl aminopeptidases (APN) (Homo sapiens, UniProt P15144); assay: Inhibition of alanyl aminopeptidase enzymatic activity, fluorogenic substrate (Ala)2-rhodamine 110; type: biochemical; conditions: Table 3, unstarred values; read-out: IC50APN
Sequence (P15144 whole entry, species assumed): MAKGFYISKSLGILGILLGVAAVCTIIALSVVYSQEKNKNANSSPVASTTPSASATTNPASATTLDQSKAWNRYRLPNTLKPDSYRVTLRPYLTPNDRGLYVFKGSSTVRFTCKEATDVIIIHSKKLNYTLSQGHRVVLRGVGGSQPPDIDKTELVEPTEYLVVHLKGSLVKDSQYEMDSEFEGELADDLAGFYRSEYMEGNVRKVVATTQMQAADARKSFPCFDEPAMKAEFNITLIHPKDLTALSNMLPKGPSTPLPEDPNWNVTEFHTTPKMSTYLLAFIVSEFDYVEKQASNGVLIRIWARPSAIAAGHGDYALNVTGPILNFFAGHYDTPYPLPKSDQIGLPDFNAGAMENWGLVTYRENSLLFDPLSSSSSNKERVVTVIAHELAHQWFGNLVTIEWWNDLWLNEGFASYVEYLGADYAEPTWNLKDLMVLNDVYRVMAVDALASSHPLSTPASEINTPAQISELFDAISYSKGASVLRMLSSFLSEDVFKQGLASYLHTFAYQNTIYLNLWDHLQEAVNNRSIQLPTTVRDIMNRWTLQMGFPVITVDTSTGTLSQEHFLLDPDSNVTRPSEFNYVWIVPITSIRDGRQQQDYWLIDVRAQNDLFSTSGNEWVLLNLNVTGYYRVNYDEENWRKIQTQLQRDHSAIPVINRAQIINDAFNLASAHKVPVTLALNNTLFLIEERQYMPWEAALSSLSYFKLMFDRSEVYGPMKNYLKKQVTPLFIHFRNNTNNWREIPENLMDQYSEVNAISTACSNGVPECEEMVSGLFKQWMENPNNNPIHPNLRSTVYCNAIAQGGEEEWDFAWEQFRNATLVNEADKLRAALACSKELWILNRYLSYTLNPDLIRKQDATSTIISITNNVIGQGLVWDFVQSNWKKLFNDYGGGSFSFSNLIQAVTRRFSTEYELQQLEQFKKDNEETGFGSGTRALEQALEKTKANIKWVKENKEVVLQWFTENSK
assay readout: IC50 (µM)

Below are worked cases with known answers.
compound: Cc1ccc(C)n1-c1cccc(C(=O)N/N=C/c2cc(Br)c(O)c(Br)c2)c1 [A3.150]
assay readout: IC50
quantitative readout: 24.9

compound: O=C(Cc1cccs1)N/N=C/C=C\c1ccco1 [A3.171]
assay readout: IC50
quantitative readout: 28

compound: COc1ccc2ccccc2c1-c1cc(C(=O)N/N=C(\C)c2ccco2)[nH]n1 [A3.228]
assay readout: IC50
quantitative readout: 38.2

compound: O=C(N/N=C/c1ccco1)c1ccccc1[N+](=O)[O-] [A3.315]
assay readout: IC50
quantitative readout: 92.2

compound: O=C(Cc1cccs1)N/N=C\c1ccco1 [A3.329]
assay readout: IC50
quantitative readout: 143

compound: CC1CCc2c(sc(NC(=O)C(C(F)(F)F)C(F)(F)F)c2C#N)C1 (stereo not shown) [A3.266]
assay readout: IC50
quantitative readout: 51.3

compound: COC(=O)c1cc(NC(=O)Cc2cccs2)cc(C(=O)OC)c1 [A3.117]
assay readout: IC50
quantitative readout: 21.2

compound: C/C(=N\N=C1\SC(CC(=O)O)C(=O)N1c1ccccc1)c1ccco1 (stereo not shown) [A3.174]
assay readout: IC50
quantitative readout: 28.6

(A) O=C(NCCc1ccccc1)/C(=C\c1ccco1)NC(=O)c1ccccc1 [A3.275]
(B) CCOC(=O)c1c(C)oc2c1c1c(c3ccccc32)OCN(C2CCS(=O)(=O)C2)C1 (stereo not shown) [A3.129]
// which entry has the larger IC50 value, A or B ? State the label of the item chosen.
A

---

molecular target: alanyl aminopeptidases (APN) (Homo sapiens, UniProt P15144); assay: Inhibition of alanyl aminopeptidase enzymatic activity, fluorogenic substrate (Ala)2-rhodamine 110; format: biochemical; details: Table 11; read-out: IC50APN
assay readout: IC50 (µM)

For orientation, consider the following solved cases.
compound: O=C(OCC1CCCO1)c1cc([N+](=O)[O-])cc([N+](=O)[O-])c1 (stereo not drawn) [A11.028]
units symbol: µM
quantitative readout: 39.3
//
compound: O=C(N/N=C/c1cc(Br)ccc1OC(=O)c1ccc([N+](=O)[O-])cc1)/C(=C\c1ccc2c(c1)OCO2)NC(=O)c1ccccc1 [A11.031]
units symbol: µM
quantitative readout: 54.2
//
compound: O=C(Cc1ccc([N+](=O)[O-])cc1)N1CCOCC1 [A11.012]
units symbol: µM
quantitative readout: 19.1
//
compound: O=C(Nc1ccc(O)cc1C(=O)O)c1cccc(N2C(=O)c3cccc4c([N+](=O)[O-])ccc(c34)C2=O)c1 [A11.017]
units symbol: µM
quantitative readout: 23.6
//
compound: N/C(=N\[N+](=O)[O-])N/N=C/c1ccco1 [A11.001]
units symbol: µM
quantitative readout: 7.6
//
compound: O=C1C=CC(=O)N1c1cc([N+](=O)[O-])ccc1F [A11.015]
units symbol: µM
quantitative readout: 20.8

(1) O=C1CNC(c2cccc([N+](=O)[O-])c2)N1O (stereo not drawn) [A11.018]
(2) O=C(N/C(=C\c1cccc([N+](=O)[O-])c1)C(=O)N(CCO)CCO)c1ccco1 [A11.037]
(3) O=[N+](O)CC(c1ccccc1)P(=O)(c1ccccc1)c1ccccc1 (stereo not drawn) [A11.011]
Descending sort on IC50 required. Give your ranking as a list of the labels in the requested order.
2, 1, 3

---

Biological target: alanyl aminopeptidases (APN) (Homo sapiens, UniProt P15144)
Test: Inhibition of alanyl aminopeptidase enzymatic activity, fluorogenic substrate (Ala)2-rhodamine 110
Assay type: biochemical
Settings: Table 9, starred values = ID50; read-out: ID50 APN (values marked with *)
Protocol: The inhibition characteristics measured are referred to as IC-50 values or ID50 values (the latter marked with “*”) for said enzyme. The enzymatic activity was determined by means of the fluorogenic substrate/product (Ala)2-rhodamine 110.
pIC50: −log10 of the molar value.
assay readout: pIC50

(1) CCc1ccc(NC(=O)C2CCN(S(=O)(=O)c3ccc(Cl)cc3)CC2)cc1
(2) CC(=O)Oc1ccc2c(=O)c(-c3cnn(-c4ccccc4)c3)c(C(F)(F)F)oc2c1OC(C)=O
Of 1 and 2 , which one carries the higher reported pIC50? Respond using the label that marks the chosen record.
1

(I) COc1c(OCC(O)C(C)(C)O)ccc2c1N=C1OC=CC1C2OC (stereo not drawn)
(II) O=c1cc(CSc2nnc(-c3ccco3)c(-c3ccco3)n2)c2ccccc2[nH]1
Which entry has a larger number for pIC50, I or II ? Field: selected label. Fill in the label of the entry you choose.
II

(a) CCOC(=O)c1ccc(-c2ccc(/C=C3\C(=O)N(CCO)C(=O)C(C#N)=C3C)o2)cc1
(b) Cc1ccc(/C=C(\NC(=O)c2ccccc2)C(=O)NCCN2CCOCC2)o1
(c) O=C(OCCN1CCCCC1)C1c2ccccc2Oc2ccccc21
# desc sort on pIC50 across 3 molecules Order the labels as requested and list them.
a, b, c
(a: 5.57, b: 4.26, c: 4.02)

(P) Cc1ccc(Cn2c(SCCC(=O)O)nc3c2c(=O)[nH]c(=O)n3C)cc1
(Q) O=C1c2ccccc2-c2c1[n+]([O-])c1c([n+]2[O-])CCCC1
When their pIC50 values are compared, which is larger, P or Q ? Please reply using the label of the selected record.
Q
(Q: 5.70, P: 4.27)

---

molecular target: alanyl aminopeptidases (APN) (Homo sapiens, UniProt P15144); test: Inhibition of alanyl aminopeptidase enzymatic activity, fluorogenic substrate (Ala)2-rhodamine 110; assay type: biochemical; settings: Table 3, unstarred values; read-out: IC50APN
assay readout: IC50 (µM)

compound: O=[N+]([O-])c1ncn(CN2CCOCC2)n1
units symbol: µM
IC50: 36.6
--
compound: Cn1nc(-c2cccs2)nc2c(=O)n(C)c(=O)nc1-2
units symbol: µM
IC50: 25
--
compound: Cc1ccc(/C=N/NC(=O)c2nnn(-c3nonc3N)c2C)o1
units symbol: µM
IC50: 10.9

(a) Cc1cccc(C)c1Nc1c(-c2ccccc2NC(=O)Nc2cccc(Cl)c2)nc2c(C(=O)NCC(C)C)cccn12
(b) O=C(CCC(=O)Nc1ccc(Br)cc1)N/N=C/c1ccco1
Looking at a and b , which one comes out lower in IC50 terms? Your answer should be the label attached to the chosen record.
b
(b: 5.2 µM, a: 21.6 µM)

---

target: alanyl aminopeptidases (APN) (Homo sapiens, UniProt P15144); assay: Inhibition of alanyl aminopeptidase enzymatic activity, fluorogenic substrate (Ala)2-rhodamine 110; format: biochemical; conditions: Table 3, starred values = ID50; read-out: ID50 APN (values marked with *)
pIC50: −log10 of the molar value.
assay readout: pIC50

As a guide, the following entries are already answered.
molecule: CC1=C(C#N)C(=O)N(CCO)C(=O)/C1=C\c1ccc(-c2cc(Cl)ccc2Cl)o1
target: alanyl aminopeptidases (APN) (Homo sapiens, UniProt P15144)
quantitative readout: 5.92
--
molecule: CN1C(=O)C(Cc2c[nH]c3ccccc23)NC1=S (stereo not shown)
target: alanyl aminopeptidases (APN) (Homo sapiens, UniProt P15144)
quantitative readout: 3.83
--
molecule: CCOc1ccc(C(=O)N/N=C(/C)c2ccco2)cc1
target: alanyl aminopeptidases (APN) (Homo sapiens, UniProt P15144)
quantitative readout: 3.35
--
molecule: O=C(N/N=C/c1ccco1)c1cc(-c2ccccc2Cl)n[nH]1
target: alanyl aminopeptidases (APN) (Homo sapiens, UniProt P15144)
quantitative readout: 4.12
--
molecule: O=C(N/N=C\C=C\c1ccco1)c1cc(-c2cccs2)n[nH]1
target: alanyl aminopeptidases (APN) (Homo sapiens, UniProt P15144)
quantitative readout: 3.88

(I) O=C(CNC(=O)c1cccc(F)c1)N/N=C/c1ccco1
(II) O=C1C(Cc2ccc(O)cc2)NC(=S)N1Cc1ccccc1 (stereo not shown)
(III) Cc1ccc(Cn2c(SCCC(=O)O)nc3c2c(=O)[nH]c(=O)n3C)cc1
(IV) C/C(=N\NC(=O)COc1ccc(C)cc1[N+](=O)[O-])c1ccco1
Give the ascending ranking of the items by reported pIC50. Answer format: list of labels, ordered as asked.
IV, I, III, II
(IV: 3.37, I: 3.81, III: 4.27, II: 4.63)
